These data points were gathered from the RNAGym collection of RNA variant scans (doi:10.7554/elife.90254).

B1: LINE1-mini (parent)
chain: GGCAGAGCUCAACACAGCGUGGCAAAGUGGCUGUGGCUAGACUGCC

variants of: B1; assay: self-cleavage, relative activity (ratio to wild type); higher = more cleavage; in vitro, sequencing; the parent is a self-cleaving ribozyme
Classes (self-cleavage): low: < 0.06; moderate: ≥ 0.06 and < 0.1; high: ≥ 0.1

Which class is correct for the following variant? GGCAGAGCUCAACACGGCGUGGCAAAGGGGCUGUGGCUAGACUGCC [A16G U28G]
high

Entry GCCAGAGCUCAACACAGUGUGGCAAAGUGGCUGUGGCUAGACUGCC [G2C C18U] belongs to which category?
moderate

Class for GGCAGAGCUCAACUCAGCCUGGCAAAGUGGCUGUGGCUAGACUGCC [A14U G19C] ?
high

In plain terms, what class is GGCAGAGCUCAACACAGCGUGGCAAAGUGGCUGGGGCUAUACUGCC [U34G G40U] ?
low

Textbook exercise: identify the category of the variant given here, GGCAAAGCUCAACACAGCGUGGCAAAGUGGCUGGGGCUAGACUGCC [G5A U34G] , according to its measured value.
low

Which band does GGCAGAGCUCAACACAGCGAGGCAAAGUGGCUGUUGCUAGACUGCC [U20A G35U] fall in?
moderate

Form field 'band' for GGCAGAGCUCAACACAGCGUGGCAAAGUGGCUGUCGCUAGACCGCC [G35C U43C]
high

The entry to classify is GGCAGAGCUCAACACAGCGUGGCAAAGUCGCAGUGGCUAGACUGCC [G29C U32A] ; which class holds it?
high

State the class of the variant shown: GGAAGAGCUCAACACAGCGUGGCAAAGUGGCUGUGGCUAGACUGCG [C3A C46G]
high

Each variant maps to one class by self-cleavage. Which class for GGCAGAGCUCAACACAGCGUGGCAAAGUGGCUGUGGCUAGAUUCCC [C42U G44C] ?
high

Exercise: read the entry GGCGGAGCUCAACACCGCGUGGCAAAGUGGCUGUGGCUAGACUGCC [A4G A16C] and state which class it falls under.
high

Where would GGCAGAGCGCAACACAGCGUGGCAAAGUGGCUGUGGCUAGACUCCC [U9G G44C] land among the classes by reported self-cleavage?
low

Category lookup for the variant GUCAGCGCUCAACACAGCGUGGCAAAGUGGCUGUGGCUAGACUGCC [G2U A6C]
low

Kindly state the category for this variant: GGCAGAGCUCAACACAGCGUGGCAGAGUGGCUGUGGCUAGCCUGCC [A25G A41C]
low

Please indicate the class for GGCAGAGCUCAACACAGCGUGGCAAAGUGGCUGUGGCUCGACUGAC [A39C C45A] based on its self-cleavage.
high

Sort GGCAAAGCUGAACACAGCGUGGCAAAGUGGCUGUGGCUAGACUGCC [G5A C10G] into one of the categories.
low

Category of GCCAGAGCUCAACACAGCGUUGCAAAGUGGCUGUGGCUAGACUGCC [G2C G21U] , please.
high

Which self-cleavage band matches GGCAGAGCUCAACACAGCGUGACAAAGUGGCUGUGGCUAGACUCCC [G22A G44C] ?
high

Class for GGCAGAGCUCACCACAGCGUGGCAAAGUGGCUGUGGCUACACUGCC [A12C G40C] ?
low

Form: Item = GGCAGAGCUAAACACAGCGUGGCAAAGUGGCUGUGGCUAGACUACC [C10A G44A] ; Class = ?
moderate
